- target-of-assay: cloned human or rodent CNS receptors, channels, and transporters (PDSP panel) (Homo sapiens, UniProt Q01959)
- Construct: expressed in transfected cells
- Sequence (Q01959 whole entry): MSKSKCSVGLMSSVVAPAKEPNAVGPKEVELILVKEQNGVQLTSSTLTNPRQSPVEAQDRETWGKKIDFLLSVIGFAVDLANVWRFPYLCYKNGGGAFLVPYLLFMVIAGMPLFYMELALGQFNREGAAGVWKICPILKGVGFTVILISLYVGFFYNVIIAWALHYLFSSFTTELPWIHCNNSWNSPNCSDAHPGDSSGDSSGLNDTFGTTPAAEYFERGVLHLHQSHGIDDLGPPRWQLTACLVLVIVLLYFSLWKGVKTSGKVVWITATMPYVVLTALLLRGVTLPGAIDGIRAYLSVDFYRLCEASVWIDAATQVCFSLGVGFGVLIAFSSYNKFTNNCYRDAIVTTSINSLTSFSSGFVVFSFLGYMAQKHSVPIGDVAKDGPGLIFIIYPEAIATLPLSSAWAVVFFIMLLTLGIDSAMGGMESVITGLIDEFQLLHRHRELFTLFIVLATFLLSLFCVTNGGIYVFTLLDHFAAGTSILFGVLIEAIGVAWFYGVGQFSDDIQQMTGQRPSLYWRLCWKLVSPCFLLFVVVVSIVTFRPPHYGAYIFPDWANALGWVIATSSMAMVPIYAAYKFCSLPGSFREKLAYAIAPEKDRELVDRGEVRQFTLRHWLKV
- test-summary: PDSP GPCR panel primary binding assays at 10 μM
- particulars: DAT; primary assay, replicate 2
Decision: Inhibition 2 beneath 50% gives Condition met; Inhibition 2 meeting or exceeding 50% gives Condition not met.

compound: O=c1oc2ccccc2cc1-c1cn2cc(Cc3ccc(F)cc3)sc2n1 [UNC10302680A, iMDK]
group-label: Condition met
--
compound: CCC(=O)N1CCC(NC(=O)Nc2ccc(OC(F)(F)F)cc2)CC1 [UNC10302681A, TPPU]
group-label: Condition not met
--
compound: CNc1nc(C)nc(N[C@H]2CCC[C@@H](C(=O)NCc3ccc(C#N)cc3C(F)(F)F)C2)n1 [UNC10302679A, GSK2256294A]
group-label: Condition not met
--
compound: O=C(NC1CC1)C(=O)C(Cc1ccccc1)NC(=O)[C@H]1CCC(=O)N1Cc1ccccc1 (some centres unmarked) [UNC10302676A, ABT-957 (Alicapistat)]
group-label: Condition met
--
compound: CC(=O)N1CCC(NC(=O)NC23CC4CC(CC(C4)C2)C3)CC1 [UNC10302683A, AR9281]
group-label: Condition not met

---

- target-of-assay: cloned human or rodent CNS receptors, channels, and transporters (PDSP panel) (Homo sapiens, UniProt P35368)
- Construct: expressed in transfected cells
- Sequence (P35368 1-520): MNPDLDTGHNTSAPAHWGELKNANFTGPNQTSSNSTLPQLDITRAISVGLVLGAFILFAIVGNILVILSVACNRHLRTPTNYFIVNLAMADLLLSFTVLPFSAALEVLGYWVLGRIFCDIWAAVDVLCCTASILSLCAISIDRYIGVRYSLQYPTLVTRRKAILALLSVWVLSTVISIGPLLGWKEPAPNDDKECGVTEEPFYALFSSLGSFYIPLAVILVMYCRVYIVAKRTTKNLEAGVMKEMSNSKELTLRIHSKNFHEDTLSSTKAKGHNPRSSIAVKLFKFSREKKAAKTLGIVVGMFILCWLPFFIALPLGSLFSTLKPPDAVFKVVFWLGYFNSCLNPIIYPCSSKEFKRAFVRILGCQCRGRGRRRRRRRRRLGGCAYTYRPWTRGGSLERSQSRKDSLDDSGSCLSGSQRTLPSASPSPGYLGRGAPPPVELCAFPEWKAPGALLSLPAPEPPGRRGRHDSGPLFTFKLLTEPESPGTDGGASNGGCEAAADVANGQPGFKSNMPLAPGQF
- test-summary: PDSP GPCR panel primary binding assays at 10 μM
- particulars: Alpha1B; primary assay, replicate 2
Listed here: items and their measured Inhibition 2.
property-measured: Inhibition 2 (%)

compound: CNc1nc(C)nc(N[C@H]2CCC[C@@H](C(=O)NCc3ccc(C#N)cc3C(F)(F)F)C2)n1 [UNC10302679A, GSK2256294A]
property-measured: Inhibition 2
observed: 6.62
--
compound: CCC(=O)N1CCC(NC(=O)Nc2ccc(OC(F)(F)F)cc2)CC1 [UNC10302681A, TPPU]
property-measured: Inhibition 2
observed: 16.24
--
compound: O=C(NC1CC1)C(=O)C(Cc1ccccc1)NC(=O)[C@H]1CCC(=O)N1Cc1ccccc1 (stereo partly shown) [UNC10302676A, ABT-957 (Alicapistat)]
property-measured: Inhibition 2
observed: -13.01
--
compound: CC(=O)N1CCC(NC(=O)NC23CC4CC(CC(C4)C2)C3)CC1 [UNC10302683A, AR9281]
property-measured: Inhibition 2
observed: -1.86
